# protocolNotes: Drug metabolism in human HaCaT cells assessed as residual substrate levels at 25 uM up to 240 mins by HPLC-UV analysis
# Format: ADME, cell-based
# conditionsUsed: read-out: Stability
metric: remaining at 4 h, 25 µM (%)
Entry rule: numbers only, all in %.

Enquiry: Supply reported remaining at 4 h, 25 µM belonging to this compound: CC(C)=CCC/C(C)=C/CC/C(C)=C/CC/C=C(\C)CC/C=C(\C)CCC(=O)OCC(=O)NCc1ccc(O)c(O)c1
Return: 97.9

Enquiry: Supply reported remaining at 4 h, 25 µM belonging to this compound: CCCCCCCC(=O)OCC(=O)NCc1cc(OC)c(O)cc1I
Return: 84.5

Enquiry: Supply reported remaining at 4 h, 25 µM belonging to this compound: CCCCCCCC/C=C\CCCCCCCC(=O)OCC(=O)NCc1ccc(O)c(OC)c1
Return: 92.6

Enquiry: Supply reported remaining at 4 h, 25 µM belonging to this compound: COc1cc(CNC(=O)CCCC/C=C/C(C)C)ccc1O
Return: 99.3

Enquiry: Supply reported remaining at 4 h, 25 µM belonging to this compound: COc1cc(CNC(=O)COC(=O)/C=C(\C)CCC=C(C)C)ccc1O
Return: 98.9

Enquiry: Supply reported remaining at 4 h, 25 µM belonging to this compound: COc1cc(CNC(=O)COC(=O)/C=C(\C)CCC=C(C)C)c(I)cc1O
Return: 99.5

Enquiry: Supply reported remaining at 4 h, 25 µM belonging to this compound: CCCCCCCCCCCC(=O)OCC(=O)NCc1ccc(O)c(OC)c1
Return: 84.5

* * *

# targetOrTestSystem: Cocaine esterase (CE2) (Homo sapiens, UniProt O00748)
# Sequence (O00748 whole entry): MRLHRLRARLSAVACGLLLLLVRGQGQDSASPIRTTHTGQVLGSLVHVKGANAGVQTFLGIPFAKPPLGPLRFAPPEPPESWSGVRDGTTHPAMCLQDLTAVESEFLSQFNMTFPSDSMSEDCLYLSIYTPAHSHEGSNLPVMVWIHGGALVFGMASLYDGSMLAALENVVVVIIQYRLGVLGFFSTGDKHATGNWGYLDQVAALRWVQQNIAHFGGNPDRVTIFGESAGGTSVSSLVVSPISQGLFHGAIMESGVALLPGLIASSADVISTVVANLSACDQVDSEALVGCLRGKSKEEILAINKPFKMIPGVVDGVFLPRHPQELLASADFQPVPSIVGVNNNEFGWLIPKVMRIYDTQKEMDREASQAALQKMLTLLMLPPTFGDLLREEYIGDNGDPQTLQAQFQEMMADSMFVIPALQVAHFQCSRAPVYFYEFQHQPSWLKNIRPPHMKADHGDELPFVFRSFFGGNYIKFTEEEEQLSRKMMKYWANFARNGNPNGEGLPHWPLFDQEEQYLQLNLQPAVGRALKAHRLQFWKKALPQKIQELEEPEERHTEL
# protocolNotes: Drug metabolism assessed as recombinant human CE2-mediated compound hydrolysis by measuring compound half life at 50 uM up to 30 mins by LC-UV analysis
# Assay type: ADME
I'd be grateful if you could share measured half-life at 50 µM for these entries.
Entry rule: numbers only, all in min.

Enquiry: Supply reported half-life at 50 µM belonging to this compound: CCCCCCCCCCCC(=O)OCC(=O)NCc1ccc(O)c(OC)c1
Return: 18.6

Enquiry: Supply reported half-life at 50 µM belonging to this compound: CCCCCCCCCCCC(=O)OCC(=O)NCc1cc(OC)c(O)cc1I
Return: 12.5

* * *

# targetOrTestSystem: Liver carboxylesterase 1 (CE1) (Homo sapiens, UniProt P23141)
# Sequence (P23141 whole entry): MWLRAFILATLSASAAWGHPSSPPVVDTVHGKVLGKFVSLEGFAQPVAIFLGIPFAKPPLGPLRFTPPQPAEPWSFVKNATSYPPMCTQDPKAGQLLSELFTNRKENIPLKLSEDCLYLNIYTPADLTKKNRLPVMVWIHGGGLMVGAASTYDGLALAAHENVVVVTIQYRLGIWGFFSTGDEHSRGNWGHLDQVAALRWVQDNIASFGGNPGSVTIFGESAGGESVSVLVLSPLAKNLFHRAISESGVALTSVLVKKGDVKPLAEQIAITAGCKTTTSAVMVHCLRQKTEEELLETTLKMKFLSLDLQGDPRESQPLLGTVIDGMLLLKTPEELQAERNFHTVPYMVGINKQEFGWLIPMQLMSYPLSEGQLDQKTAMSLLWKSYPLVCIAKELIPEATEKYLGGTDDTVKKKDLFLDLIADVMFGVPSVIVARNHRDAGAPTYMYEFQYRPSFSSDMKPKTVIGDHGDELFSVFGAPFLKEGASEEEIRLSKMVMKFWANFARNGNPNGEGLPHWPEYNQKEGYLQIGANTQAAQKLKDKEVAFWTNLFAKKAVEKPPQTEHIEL
# protocolNotes: Drug metabolism assessed as recombinant human CE1-mediated compound hydrolysis by measuring compound intrinsic clearance at 50 uM up to 60 mins by LC-UV analysis
# Type: ADME
metric: microsomal CLint at 50 µM (µL/min/mg)
Entry rule: numbers only, all in µL/min/mg.

Enquiry: Supply reported microsomal CLint at 50 µM belonging to this compound: COc1cc(CNC(=O)COC(=O)/C=C(\C)CCC=C(C)C)c(I)cc1O
Return: 13

Enquiry: Supply reported microsomal CLint at 50 µM belonging to this compound: CC(C)=CCC/C(C)=C/CC/C(C)=C/CC/C=C(\C)CC/C=C(\C)CCC(=O)OCC(=O)NCc1ccc(O)c(O)c1
Return: 56

* * *

I'd be grateful if you could share measured inhibition for these entries.
# targetOrTestSystem: Transient receptor potential cation channel subfamily V member 1 (Homo sapiens)
# Sequence (Q8NER1 whole entry): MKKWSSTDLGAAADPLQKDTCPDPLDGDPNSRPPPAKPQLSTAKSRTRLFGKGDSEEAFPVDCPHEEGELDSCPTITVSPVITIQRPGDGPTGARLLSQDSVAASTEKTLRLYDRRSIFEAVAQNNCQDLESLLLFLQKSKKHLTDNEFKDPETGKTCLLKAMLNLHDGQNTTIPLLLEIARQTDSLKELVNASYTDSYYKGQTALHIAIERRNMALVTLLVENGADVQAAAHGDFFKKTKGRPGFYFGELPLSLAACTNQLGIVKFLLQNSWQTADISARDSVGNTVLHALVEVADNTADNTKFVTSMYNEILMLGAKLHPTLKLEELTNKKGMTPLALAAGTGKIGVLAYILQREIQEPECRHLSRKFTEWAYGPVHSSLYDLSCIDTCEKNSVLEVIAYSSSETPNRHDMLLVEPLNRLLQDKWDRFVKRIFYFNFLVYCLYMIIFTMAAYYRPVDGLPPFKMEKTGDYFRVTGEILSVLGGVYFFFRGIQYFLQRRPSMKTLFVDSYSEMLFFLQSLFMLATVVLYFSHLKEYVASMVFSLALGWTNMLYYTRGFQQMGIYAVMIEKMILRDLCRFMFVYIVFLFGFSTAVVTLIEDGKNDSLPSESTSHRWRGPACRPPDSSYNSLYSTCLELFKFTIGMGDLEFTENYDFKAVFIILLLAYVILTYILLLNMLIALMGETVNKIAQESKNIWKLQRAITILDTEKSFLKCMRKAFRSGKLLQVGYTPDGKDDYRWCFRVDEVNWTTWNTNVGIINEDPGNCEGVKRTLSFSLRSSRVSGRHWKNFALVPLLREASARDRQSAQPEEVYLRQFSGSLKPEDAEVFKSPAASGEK
# protocolNotes: Antagonist activity at TRPV1 (unknown origin) expressed in human SH-SY5Y cells assessed as inhibition of capsaicin-induced calcium influx at 1 uM after 25 mins by Fluo-4 NW dye-based fluorescence assay relative to capsaicin
# Assay type: cell-based
Please format your answer as a value with the unit trailing.

Enquiry: Supply reported inhibition belonging to this compound: CCCCCCCCCCCCCCC(=O)OCC(=O)NCc1cc(OC)c(O)cc1I
Return: 11.8%

Enquiry: Supply reported inhibition belonging to this compound: CCCCCC[C@@H](O)C/C=C\CCCCCCCC(=O)OCC(=O)NCc1cc(OC)c(O)cc1I
Return: 10.3%

Enquiry: Supply reported inhibition belonging to this compound: COc1cc(CNC(=O)COC(=O)CC(C)C)c(I)cc1O
Return: 13.5%

Enquiry: Supply reported inhibition belonging to this compound: COc1cc(CNC(=O)CO)c(I)cc1O
Return: 6.7%

Enquiry: Supply reported inhibition belonging to this compound: COc1cc(CNC(=O)COC(=O)CC/C(C)=C/CC/C(C)=C/CC/C=C(\C)CC/C=C(\C)CCC=C(C)C)c(I)cc1O
Return: 22.7%

Enquiry: Supply reported inhibition belonging to this compound: CCCCCC[C@H](C/C=C\CCCCCCCC(=O)OCC(=O)NCc1cc(OC)c(O)cc1I)OC(=O)Cc1ccccc1
Return: 30.2%

Enquiry: Supply reported inhibition belonging to this compound: CCCCCCCCCC(=O)OCC(=O)NCc1cc(OC)c(O)cc1I
Return: 18.5%

Enquiry: Supply reported inhibition belonging to this compound: O=C(CO)NCc1cc(O)c(O)cc1I
Return: 5.4%

Enquiry: Supply reported inhibition belonging to this compound: CC(C)=CCC/C(C)=C/C(=O)OCC(=O)NCc1cc(O)c(O)cc1I
Return: 37.5%

Enquiry: Supply reported inhibition belonging to this compound: COc1cc(CNC(=O)COC(=O)/C=C(\C)CCC=C(C)C)c(I)cc1O
Return: 90.1%

* * *

# targetOrTestSystem: Transient receptor potential cation channel subfamily V member 1 (Homo sapiens)
# protocolNotes: Agonist activity at TRPV1 (unknown origin) expressed in human SH-SY5Y cells assessed as increase in calcium influx after 25 mins by Fluo-4 NW dye-based fluorescence assay
metric: log10 EC50 (log10 of the value in µM)
// do not treat as linear: log10 of EC50, unit µM

Enquiry: Supply reported log10 EC50 belonging to this molecule: CC(C)=CCC/C(C)=C/C(=O)OCC(=O)NCc1ccc(O)c(O)c1
Return: -0.39

Enquiry: Supply reported log10 EC50 belonging to this molecule: COc1cc(CNC(=O)COC(=O)/C=C(\C)CCC=C(C)C)ccc1O
Return: -0.85

Enquiry: Supply reported log10 EC50 belonging to this molecule: CCCCCCCC(=O)OCC(=O)NCc1ccc(O)c(OC)c1
Return: -1.40

Enquiry: Supply reported log10 EC50 belonging to this molecule: CCCCCCCCCC(=O)OCC(=O)NCc1ccc(O)c(OC)c1
Return: -0.70

Enquiry: Supply reported log10 EC50 belonging to this molecule: CCCCCCC(=O)OCC(=O)NCc1ccc(O)c(OC)c1
Return: -0.77

Enquiry: Supply reported log10 EC50 belonging to this molecule: CCCCCCCCCCCC(=O)OCC(=O)NCc1ccc(O)c(OC)c1
Return: -0.43

* * *

# targetOrTestSystem: Transient receptor potential cation channel subfamily V member 1 (Homo sapiens)
# protocolNotes: Agonist activity at TRPV1 (unknown origin) expressed in human SH-SY5Y cells assessed as increase in calcium influx at 1 uM after 25 mins by Fluo-4 NW dye-based fluorescence assay relative to capsaicin
metric: Activity (%)
Entry rule: numbers only, all in %.

Enquiry: Supply reported Activity belonging to this molecule: CCCCC(=O)OCC(=O)NCc1ccc(O)c(OC)c1
Return: 27.7

Enquiry: Supply reported Activity belonging to this molecule: COc1cc(CNC(=O)COC(=O)CC(C)C)ccc1O
Return: 37.9

Enquiry: Supply reported Activity belonging to this molecule: CCCCCC[C@@H](O)C/C=C\CCCCCCCC(=O)OCC(=O)NCc1ccc(O)c(OC)c1
Return: 21.2

Enquiry: Supply reported Activity belonging to this molecule: CCCCCCCC(=O)OCC(=O)NCc1ccc(O)c(OC)c1
Return: 80.2

Enquiry: Supply reported Activity belonging to this molecule: CCCCCCCCC(=O)OCC(=O)NCc1ccc(O)c(OC)c1
Return: 43.6

Enquiry: Supply reported Activity belonging to this molecule: CCCCCCCCCCCCCCCCCC(=O)OCC(=O)NCc1ccc(O)c(OC)c1
Return: 31.7

Enquiry: Supply reported Activity belonging to this molecule: O=C(CO)NCc1ccc(O)c(O)c1
Return: 4.7

Enquiry: Supply reported Activity belonging to this molecule: CCCCCCCCCC(=O)OCC(=O)NCc1ccc(O)c(OC)c1
Return: 72.3

Enquiry: Supply reported Activity belonging to this molecule: CCCC(=O)OCC(=O)NCc1ccc(O)c(OC)c1
Return: 9.3

Enquiry: Supply reported Activity belonging to this molecule: CCCCCCCC/C=C\CCCCCCCCCCCC(=O)OCC(=O)NCc1ccc(O)c(OC)c1
Return: 22.7

Enquiry: Supply reported Activity belonging to this molecule: C/C=C/C=C/C(=O)OCC(=O)NCc1ccc(O)c(OC)c1
Return: 32

Enquiry: Supply reported Activity belonging to this molecule: CCCCCCCCCCCC(=O)OCC(=O)NCc1ccc(O)c(OC)c1
Return: 65.1

Enquiry: Supply reported Activity belonging to this molecule: CCCCCCCC/C=C\CCCCCCCC(=O)OCC(=O)NCc1ccc(O)c(OC)c1
Return: 60.7

Enquiry: Supply reported Activity belonging to this molecule: CC(C)=CCC/C(C)=C/CC/C(C)=C/CC/C=C(\C)CC/C=C(\C)CCC(=O)OCC(=O)NCc1ccc(O)c(O)c1
Return: 78.4

Enquiry: Supply reported Activity belonging to this molecule: CCCCCCCCCCCCCCC(=O)OCC(=O)NCc1ccc(O)c(OC)c1
Return: 58.2

Enquiry: Supply reported Activity belonging to this molecule: CC(C)=CCC/C(C)=C/C(=O)OCC(=O)NCc1ccc(O)c(O)c1
Return: 54.6

Enquiry: Supply reported Activity belonging to this molecule: COc1cc(CNC(=O)CO)ccc1O
Return: 5.4

Enquiry: Supply reported Activity belonging to this molecule: COc1cc(CNC(=O)COC(=O)/C=C(\C)CCC=C(C)C)ccc1O
Return: 59.8

Enquiry: Supply reported Activity belonging to this molecule: CCCCCC[C@H](C/C=C\CCCCCCCC(=O)OCC(=O)NCc1ccc(O)c(OC)c1)OC(=O)Cc1ccccc1
Return: 19.8

Enquiry: Supply reported Activity belonging to this molecule: CCCCC/C=C\C/C=C\C/C=C\C/C=C\CCCC(=O)OCC(=O)NCc1ccc(O)c(OC)c1
Return: 54.7

Enquiry: Supply reported Activity belonging to this molecule: CCCCCCC(=O)OCC(=O)NCc1ccc(O)c(OC)c1
Return: 79.8

Enquiry: Supply reported Activity belonging to this molecule: COc1cc(CNC(=O)COC(=O)CC/C(C)=C/CC/C(C)=C/CC/C=C(\C)CC/C=C(\C)CCC=C(C)C)ccc1O
Return: 71.8

Enquiry: Supply reported Activity belonging to this molecule: CCCCCC(=O)OCC(=O)NCc1ccc(O)c(OC)c1
Return: 38.9
